test: Cancer cell line cytotoxicity assay (MTS or resazurin, 72 h); type: cell-based; settings: human, MCF7 cells; MCF7, 72 h incubation
Measured parameter: EC50 at 72 h

Entry under test: CN1C(=O)N[C@H]2[C@@H]3NC(=O)c4cccn4[C@]3(O)C[C@]21O (racemic) [compound 24, 7-hydroxy-13-des-bromo AglA] . Its EC50 at 72 h was > 250 µM

---

experiment: Cancer cell line cytotoxicity assay (MTS or resazurin, 72 h); assay type: cell-based; details: human, U87 glioblastoma cells; glioblastoma cell line U87, 72 h incubation
Measured parameter: EC50 at 72 h (µM)
Numeric answer only, unit µM assumed.

Entry under test: CN1C(=O)N[C@H]2[C@@H]3NC(=O)c4cccn4[C@]3(O)C[C@]21O (racemic) [compound 24, 7-hydroxy-13-des-bromo AglA] . Its EC50 at 72 h was 171
